The measurements presented in this section are drawn from paper PMC9964117.

- measured.target: MDA-9 PDZ1 domain (Homo sapiens)
- Construct: the N-terminal (1–109aa), PDZ1 (110–193aa), PDZ2 (194–274aa); made in house
- Sequence (O00560 110-193): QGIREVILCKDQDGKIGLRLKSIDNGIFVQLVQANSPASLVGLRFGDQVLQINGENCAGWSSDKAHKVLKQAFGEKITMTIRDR
- protocol.summary: Competitive fluorescence polarization with FITC-peptide
- reported.conditions: 80 μM PDZ1, 500 nM FITC-peptide; read-out: Binding affinity to PDZ1 from competitive FP
observable: pKd
Answers are plain numbers, as −log10 of the molar value.

If you can, please state the reported pKd value of Cc1cc(Nc2ccccc2C(=O)O)ccc1Cl .
3.77

---

- measured.target: MTSL-labeled C118/C166S mutant of MDA-9 PDZ1 domain (Homo sapiens, UniProt O00560, C166S)
- Construct: the N-terminal (1–109aa), PDZ1 (110–193aa), PDZ2 (194–274aa)
- protocol.summary: NMR CSP titration against MTSL-labeled mutant
- reported.conditions: dose-dependent CSP, read-out: Binding affinity to MTSL-labeled C118/C166S mutant of PDZ1
observable: Kd

If you can, please state the reported Kd value of Cc1cc(Nc2ccccc2C(=O)O)ccc1Cl [PI1A] .
250 µM

---

- measured.target: MDA-9 PDZ1 domain (Homo sapiens)
- Construct: the N-terminal (1–109aa), PDZ1 (110–193aa), PDZ2 (194–274aa); made in house
- protocol.summary: NMR chemical shift perturbation titration (1H-15N HSQC)
- reported.conditions: 25 °C, pH 7.0, read-out: Binding affinity (Kd) to MDA-9 PDZ1 domain from dose-dependent CSPs
observable: Kd (µM)
One number for each entry, in µM.

If you can, please state the reported Kd value of Cc1cc(Nc2ccccc2C(=O)O)ccc1Cl .
110

---

- measured.target: V209I mutant of MDA-9 PDZ2 domain (Homo sapiens, UniProt O00560, V209I)
- Construct: PDZ1 (110–193aa), PDZ2 (194–274aa), and the C-terminal (275–298aa)
- protocol.summary: NMR CSP titration against mutant
observable: Kd

Write down the reported Kd of O=C(O)c1cc(-c2ccc(F)cc2)n[nH]1 , test system: V209I mutant of MDA-9 PDZ2 domain (Homo sapiens, UniProt O00560, V209I).
> 5 mM
